Catalogue of compounds with associated IC50
- target: Beta-secretase 2 (Homo sapiens)
- Sequence (Q9Y5Z0 whole entry): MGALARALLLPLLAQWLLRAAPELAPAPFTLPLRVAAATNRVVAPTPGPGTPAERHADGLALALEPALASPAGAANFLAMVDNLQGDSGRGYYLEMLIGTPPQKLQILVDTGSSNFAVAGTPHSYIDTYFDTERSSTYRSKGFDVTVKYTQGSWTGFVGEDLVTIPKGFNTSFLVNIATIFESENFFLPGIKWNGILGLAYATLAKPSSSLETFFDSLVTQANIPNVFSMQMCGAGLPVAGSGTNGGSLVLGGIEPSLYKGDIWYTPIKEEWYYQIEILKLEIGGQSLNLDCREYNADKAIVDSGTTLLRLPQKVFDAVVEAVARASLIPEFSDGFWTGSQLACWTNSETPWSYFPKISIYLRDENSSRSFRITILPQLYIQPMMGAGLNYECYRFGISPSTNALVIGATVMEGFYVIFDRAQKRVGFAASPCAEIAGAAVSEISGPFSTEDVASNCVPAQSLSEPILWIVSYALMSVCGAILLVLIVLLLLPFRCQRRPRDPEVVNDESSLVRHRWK
- measurement protocol: Inhibition of BACE2 expressed in human 293T cells
quantity measured: IC50

1. Cc1cc2c(C(=O)N[C@H](C)c3ccccc3)cc(C(=O)N[C@@H](Cc3ccccc3)[C@H](O)CNC3CC3)cc2o1	> 100 µM
2. COc1cc(C(=O)N[C@@H](Cc2ccccc2)[C@H](O)CNC2CC2)cc(C(=O)N[C@H](C)c2ccccc2)c1	> 100 µM
3. C[C@@H](NC(=O)c1cc(C(=O)N[C@@H](Cc2ccccc2)[C@H](O)CNC2CC2)cc2c1CCCCO2)c1ccc(F)cc1	1.95 µM
4. C[C@@H](NC(=O)c1cc(C(=O)N[C@@H](Cc2ccccc2)[C@H](O)CNC2CC2)cc(N2CCCCS2(=O)=O)c1)c1ccccc1	0.251 µM
5. C[C@@H](NC(=O)c1cc2c(c(C(=O)N[C@@H](Cc3ccccc3)[C@H](O)CNC3CC3)c1)CCCO2)c1ccccc1	> 100 µM
6. C[C@@H](NC(=O)c1cc(C#Cc2ccccc2)cc(C(=O)N[C@@H](Cc2ccccc2)[C@H](O)CNC2CC2)c1)c1ccccc1	> 100 µM
7. C[C@@H](NC(=O)c1cc(C(=O)N[C@@H](Cc2ccccc2)[C@H](O)CNC2CC2)cc2c1CCCO2)c1ccccc1	> 100 µM
